# experimental-system: full-length beta-Catenin (Uniprot ID P35222) (Homo sapiens (Human)) (UniProt P35222)
# assay-explanation: fluorescence polarization competition vs 5FAM-TCF4(10-53) on full-length beta-catenin
pIC50: −log10 of the molar value. Starred links: 1 amine or outer side, 2 acyl side, 3 side chain; linkers in the order of their positions; H or OH if unused. Positions of bridges follow the written chain, without caps; N, C: chain ends. Non-standard residues stand in square brackets, D forms with d. Primed or numbered codes have the meaning given here. PyrS2″ = (S)-3-amino-1-((pent-4-en-1-yloxy)carbonyl)pyrrolidine-3-carboxylic acid (stapling residue), C=CCCCOC(=O)N1CC[C@@](N[*:1])(C(=O)[*:2])C1; B5(5) = 2,2-bis(4-pentenyl)glycine, 2-amino-2-(pent-4-en-1-yl)hept-6-enoic acid (stitching residue), C=CCCCC(CCCC=C)(N[*:1])C(=O)[*:2]; TfeGA = (S)-2-amino-3-((carboxymethyl)(2,2,2-trifluoroethyl)amino)propanoic acid, O=C([C@H](CN(CC(=O)[*:3])CC(F)(F)F)N[*:1])[*:2]; PyrS2 = (S)-3-amino-1-((pent-4-en-1-yloxy)carbonyl)pyrrolidine-3-carboxylic acid, C=CCCCOC(=O)N1CC[C@@](N[*:1])(C(=O)[*:2])C1; B5 = 2-amino-2-(pent-4-en-1-yl)hept-6-enoic acid, C=CCCCC(CCCC=C)(N[*:1])C(=O)[*:2]; Bta = N[C@@H](Cc1csc2ccccc12)C(=O)O; αAllylPro = C=CC[C@@]1(C(=O)O)CCCN1; tBuAla = CC(C)(C)C[C@H](N)C(=O)O; 3Thi = N[C@@H](Cc1ccsc1)C(=O)O; hSer = N[C@@H](CCO)C(=O)O
observable: pIC50

binder	observable	data-value
Ac-[αAllylPro]D[tBuAla][B5]D[TfeGA]AAF[hSer][PyrS2][3Thi][Bta]S-NH2 (staple 1-4, 4-11; also: later-eluting staple isomer composition) [I-959]	pIC50	6.06
Ac-[αAllylPro]D[tBuAla][B5(5)]NTAAFN[PyrS2″][3Thi]WQ-NH2 (staple 1-4, 4-11; also: separately listed staple isomer composition) [I-1877]	pIC50	5.82
Ac-[αAllylPro]D[tBuAla][B5]D[TfeGA]AAFS[PyrS2][3Thi][Bta]S-NH2 (staple 1-4, 4-11; also: later-eluting staple isomer composition) [I-955]	pIC50	5.92
